Data provenance is patent US9493468B2.

test system: Rhizomucor miehei; assay: Antifungal activity in vitro, resazurin growth inhibition: Rhizomucor miehei (IHEM13391); type: cell-based
Some compounds, each annotated with its measured Inf. K: Rhizomucor miehei IHEM13391, pIC50.

// Inf. K: Rhizomucor miehei IHEM13391, pIC50 value for Cc1ccc2cc(C3=NCc4ccccc4-n4cccc43)oc2c1 : 4.50

The compound identified as Cc1nc2cc(C3=NCc4c(Cl)cccc4-n4cccc43)ccc2s1 registered its Inf. K: Rhizomucor miehei IHEM13391, pIC50 at <4.19

Entry Cc1cccc2c1CNC(c1cc3cc(Cl)ccc3o1)c1cccn1-2.Cl (racemic) , Inf. K: Rhizomucor miehei IHEM13391, pIC50 reported as <4.19

Sample Fc1cc(F)c2c(c1)-n1cccc1C(c1ccc3sccc3c1)=NC2 ; Inf. K: Rhizomucor miehei IHEM13391, pIC50 observed: <4.19

response.value for Clc1cccc2c1CN=C(c1ccc3scnc3c1)c1cccn1-2 (field: Inf. K: Rhizomucor miehei IHEM13391, pIC50) = 4.42

Continuing:
Entry under test: Clc1ccc2c(c1)-n1cccc1C(c1cc3ccccc3s1)=NC2 . Its Inf. K: Rhizomucor miehei IHEM13391, pIC50 was <4.19

The compound listed as Clc1cccc2c1CN=C(c1ccc3ncsc3c1)c1cccn1-2 has a reported Inf. K: Rhizomucor miehei IHEM13391, pIC50 of <4.19

Data point: Fc1cc(F)c2c(c1)-n1cccc1C(c1cc3cc(Cl)cnc3o1)=NC2 ; Inf. K: Rhizomucor miehei IHEM13391, pIC50 = <4.19

Sure, the documented Inf. K: Rhizomucor miehei IHEM13391, pIC50 for Cn1nnc2ccc(C3=NCc4c(Cl)cccc4-n4cccc43)cc21 is <4.49
